The measurements presented in this section are drawn from patent US20240158368A1.

TGT: MERS Mpro (Middle East respiratory syndrome-related coronavirus (isolate United Kingdom/H123990006/2012) (MERS-CoV) (Betacoronavirus England 1))
Sequence (K9N7C7 3248-3553 limits assumed): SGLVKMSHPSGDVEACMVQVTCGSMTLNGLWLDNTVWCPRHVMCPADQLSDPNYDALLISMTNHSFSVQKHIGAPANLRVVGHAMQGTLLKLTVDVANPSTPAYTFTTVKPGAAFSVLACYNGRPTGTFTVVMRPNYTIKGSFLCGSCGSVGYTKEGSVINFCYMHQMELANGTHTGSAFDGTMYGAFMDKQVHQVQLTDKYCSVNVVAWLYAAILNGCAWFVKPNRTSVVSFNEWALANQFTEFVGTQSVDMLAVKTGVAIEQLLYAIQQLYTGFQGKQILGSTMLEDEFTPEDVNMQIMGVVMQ
PROTOCOL_TEXT: biochemical
// returns FALSE unless EC50 is strictly below 2 nM, in which case TRUE

Please check: EC50 for "O=C(N[C@@H]1CCN(c2c(C(=O)N3CCOCC3)cc(Cl)cc2C(F)(F)F)C1)c1cc(=O)[nH]c2c(F)cccc12" , strictly under 2 nM or not?
TRUE

Please check: EC50 for "N#Cc1cc(C(=O)N2CCOCC2)c(N2CC[C@@H](NC(=O)c3c(F)c(=O)[nH]c4c(F)cccc34)C2)c(C(F)F)c1" , strictly under 2 nM or not?
TRUE

Please check: EC50 for "Cc1cc(C(=O)N[C@@H]2CCN(c3c(C(=O)N4CCOCC4)cc(Br)cc3C(F)(F)F)C2)c(F)c(=O)[nH]1" , strictly under 2 nM or not?
TRUE

Please check: EC50 for "N#Cc1cc(C(=O)N2CCOCC2)c(N2C[C@H](NC(=O)c3cc(=O)[nH]c4c(F)c(F)ccc34)CC2=O)c(C(F)(F)F)c1" , strictly under 2 nM or not?
FALSE

Please check: EC50 for "COc1cccc2[nH]c(=O)cc(C(=O)N[C@@H]3CCN(c4c(C(=O)N5CCOCC5)cc(Cl)nc4C4CC4)C3)c12" , strictly under 2 nM or not?
FALSE

Please check: EC50 for O=C(N[C@@H]1CCN(c2c(C(=O)N3CCN4CCOCC4C3)cc(Br)cc2C(F)(F)F)C1)c1cc(=O)[nH]c2c(F)cccc12 (some centres unmarked) , strictly under 2 nM or not?
TRUE

Please check: EC50 for "O=C(N[C@@H]1CCN(c2c(C(=O)N3CCOCC3)cc(Cl)cc2C(F)(F)F)C1)c1c(F)c(=O)[nH]c2c(F)cccc12" , strictly under 2 nM or not?
TRUE

Please check: EC50 for "O=C(N[C@@H]1CC(=O)N(c2c(C(=O)N3CCOCC3)cc(Br)cc2C(F)(F)F)C1)c1c(F)c(=O)[nH]c2c(F)c(F)ccc12" , strictly under 2 nM or not?
TRUE

Please check: EC50 for "Cc1cc(C(=O)N2CCOCC2)c(N2C[C@H](NC(=O)c3cc(=O)[nH]c4c(F)c(F)ccc34)CC2=O)c(C2CC2)c1" , strictly under 2 nM or not?
TRUE

Please check: EC50 for "CN1CCN(C(=O)c2cc(Br)cc(C(F)(F)F)c2N2CC[C@@H](NC(=O)c3cc(=O)[nH]c4c(F)cccc34)C2)CC1" , strictly under 2 nM or not?
TRUE

Please check: EC50 for "COc1cccc2[nH]c(=O)cc(C(=O)N[C@@H]3CCN(c4c(C(=O)N5CCOCC5)cc(C#N)cc4C(F)(F)F)C3)c12" , strictly under 2 nM or not?
TRUE

Please check: EC50 for O=C(N[C@@H]1CCN(c2c(C(=O)N3CC4COCC4C3)cc(Br)cc2C(F)(F)F)C1)c1cc(=O)[nH]c2c(F)cccc12 (some centres unmarked) , strictly under 2 nM or not?
TRUE

Please check: EC50 for "O=C(N[C@@H]1CCN(c2c(C(=O)N3CCOCC3)cc(Br)cc2C(F)(F)F)C1)c1cc(=O)[nH]c2c(F)ccc(F)c12" , strictly under 2 nM or not?
TRUE

Please check: EC50 for "O=C(N[C@@H]1CCN(c2c(C(=O)N3CCOCC3)cc(F)cc2C(F)(F)F)C1)c1cc(=O)[nH]c2c(F)cc(F)cc12" , strictly under 2 nM or not?
FALSE

Please check: EC50 for "CN1CCN(C(=O)c2cc(C#N)cc(C(F)(F)F)c2N2CC[C@@H](NC(=O)c3cc(=O)[nH]c4c(F)cccc34)C2)CC1" , strictly under 2 nM or not?
TRUE

Please check: EC50 for "N#Cc1cc(C(=O)N2CCOCC2)c(N2C[C@H](NC(=O)c3cc(=O)[nH]c4c(F)cc(F)cc34)CC2=O)c(C(F)(F)F)c1" , strictly under 2 nM or not?
FALSE

Please check: EC50 for "NC(=O)c1cc(C(=O)N2CCOCC2)c(N2CC[C@@H](NC(=O)c3cc(=O)[nH]c4c(F)cccc34)C2)c(C(F)(F)F)c1" , strictly under 2 nM or not?
TRUE

Please check: EC50 for "C[C@@]12COC[C@@H]1CN(C(=O)c1cc(C#N)cc(C(F)(F)F)c1N1CC[C@@H](NC(=O)c3cc(=O)[nH]c4c(F)cccc34)C1)C2" , strictly under 2 nM or not?
TRUE

Please check: EC50 for "O=C(N[C@@H]1CCN(c2c(OC(F)F)cc(Cl)cc2C(=O)N2CCOCC2)C1)c1cc(=O)[nH]c2c(F)cccc12" , strictly under 2 nM or not?
TRUE

Please check: EC50 for "N#Cc1cc(C(=O)N2CCOCC2)c(N2CC[C@@H](NC(=O)c3c(F)c(=O)[nH]c4c(F)cccc34)C2)c(C(F)(F)F)c1" , strictly under 2 nM or not?
TRUE
